- assayed.target: T1, human CD3 expressed on cells (Jurkat, a CD3+ human T-cell line; human T cells) (human, UniProt P07766 23-126; P04234 22-100)
- T1 chain 1: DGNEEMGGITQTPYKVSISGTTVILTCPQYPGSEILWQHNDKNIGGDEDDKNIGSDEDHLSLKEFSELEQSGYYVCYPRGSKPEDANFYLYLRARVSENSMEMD
- T1 chain 2: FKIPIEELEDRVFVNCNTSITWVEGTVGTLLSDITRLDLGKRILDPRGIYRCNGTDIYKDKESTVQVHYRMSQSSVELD
- test: cell-based or functional assay
Entries annotated with measured U937 Cytotoxicity Human T-cells [M] (EC50)
readout.label: U937 Cytotoxicity Human T-cells [M] (EC50) (M)

binder: H1H5758B (antibody, human IgG1, V domains shown) VH: EVQLVESGGGVVQPGRSLRLSCAASGFTFSSYGMHWVRQAPGKGLEWVTVILHDGSNRYYADSVKGRFTISRDNSKNTLYLQMNILRAEDTAVYYCTKGAMVRGVPYNHYYGMDVWGQGTTVTVSS VL: DIVMTQSPSSLSASVGDRVTITCRASQGIRNDLGWYQQKPGKAPKRLIYAASNLQSGVPSRFSGSGSGTEFTLTISSLQPEDFATYYCLQHNSYPYTFGQGTKLEIKR
value.units: M
quantitative.result: 8.86e-08

binder: H1H5791B (antibody, human IgG1, V domains shown) VH: QVQLVESGAEVKKPGASVKVSCKTSGYTLSGYYMHWMRQAPGQGLEWMGWINPKSGVTNYAQKFQDRVAMTRDTSISTAYMELSRLRSDDTAVYYCARMGDGAVFDFWAQGTLVTVSS VL: DIQLTQSPSSLSASVGDRVTITCRASQRISSFLNWYQQKPGKAPKLLIYTASNLQNGVPSRFSGSGSGTDFTLTISSLQPEDFATYYCQQSYRTPLTFGGGTKLEIKR
value.units: M
quantitative.result: 8.01e-11

binder: H1H5801B (antibody, human IgG1, V domains shown) VH: QVQLVQSGGGVVQPGGSLRLSCAASGFTFDDYAMHWVRQAPGKGLEWVSLISGDGGSTYYADSVKGRFTISRDNSKNSLYLQMNSLRTEDTALYYCAKDDSSSSWYYYYYGMDVWGRGTTVTVSS VL: DIQMTQSPSSLSASVGDRVTITCRASQRISSYLNWYQQKPGKAPKVLISVASSLQSGVPSRFSGSGSGTDFTLTISSLQPEDFASYYCQQSYNTPLTFGGGTKVEIKR
value.units: M
quantitative.result: 9.23e-11

binder: H1H5757B (antibody, human IgG1, V domains shown) VH: EVQLVESGGGVVQPGRSLRLSCAASGFTFSSYGMHWVRQAPGKGLEWVTVILHDGSNRYSADSVKGRFTISRDNSKNTLYLQMNILRVEDTAVYYCTKGAMVRGVPYNHYYGMDVWGQGTTVTVSS VL: DIQMTQSPSSLSASVGDRVTITCRASQGIRNDLGWYQQKPGKAPKRLIYAASILQSGVPSRFSGSGSGTEFTLTISSLQPEDFATYYCLQHNSYPYTFGQGTKLEIKR
value.units: M
quantitative.result: 9.65e-11
